system: PRMT5-MEP50 enzyme complex (Homo sapiens (Human))
Sequence (O14744 2-637): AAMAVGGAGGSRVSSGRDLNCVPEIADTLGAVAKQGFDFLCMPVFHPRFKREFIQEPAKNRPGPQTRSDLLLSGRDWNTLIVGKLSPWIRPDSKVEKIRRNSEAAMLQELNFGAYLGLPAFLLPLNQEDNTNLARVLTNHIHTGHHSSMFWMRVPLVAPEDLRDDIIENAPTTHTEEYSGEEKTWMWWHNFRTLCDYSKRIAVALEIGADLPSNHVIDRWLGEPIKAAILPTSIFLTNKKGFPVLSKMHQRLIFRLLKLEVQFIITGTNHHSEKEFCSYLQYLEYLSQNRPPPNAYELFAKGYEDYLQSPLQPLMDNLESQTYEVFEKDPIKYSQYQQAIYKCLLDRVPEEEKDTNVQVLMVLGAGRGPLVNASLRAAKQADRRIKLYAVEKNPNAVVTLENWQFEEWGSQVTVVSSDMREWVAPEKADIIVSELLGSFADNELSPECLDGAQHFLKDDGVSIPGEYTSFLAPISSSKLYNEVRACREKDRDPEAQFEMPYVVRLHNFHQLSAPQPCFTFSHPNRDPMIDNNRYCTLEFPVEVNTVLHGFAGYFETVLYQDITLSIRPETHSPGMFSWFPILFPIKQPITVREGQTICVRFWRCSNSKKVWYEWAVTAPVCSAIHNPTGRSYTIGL
Sequence (Q9BQA1 2-342 partner): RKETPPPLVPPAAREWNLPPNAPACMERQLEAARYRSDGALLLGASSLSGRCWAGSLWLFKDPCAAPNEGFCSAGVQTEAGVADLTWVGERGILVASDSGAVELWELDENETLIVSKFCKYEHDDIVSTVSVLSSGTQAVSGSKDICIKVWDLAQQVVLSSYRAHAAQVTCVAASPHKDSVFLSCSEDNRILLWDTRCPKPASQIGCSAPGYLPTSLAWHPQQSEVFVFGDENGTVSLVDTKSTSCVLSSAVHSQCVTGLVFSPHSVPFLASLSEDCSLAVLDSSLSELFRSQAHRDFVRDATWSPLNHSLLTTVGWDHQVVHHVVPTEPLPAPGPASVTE
measurement.notes: PRMT5 enzyme activity in vitro assay (methylation of histone H4R3, ELISA absorbance at 450 nm)
study.conditions: SAM, histone H4 peptide, 2 hours at room temperature, 8 points from 10 μM to 0.128 nM

compound: COc1ccc2c(c1)OCCN(CC(O)CN1CCc3ccccc3C1)C2=O (centres unmarked)
IC50: 0.1 to 1 µM
--
compound: CCN1C(=O)CN(C[C@H](O)CN2CCc3ccccc3C2)C(=O)c2ccc(Br)cc21
IC50: 0.1 to 1 µM
